# Test System: SHV-5 (Klebsiella pneumoniae, UniProt P0A3M1)
# Sequence (P0A3M1 22-286): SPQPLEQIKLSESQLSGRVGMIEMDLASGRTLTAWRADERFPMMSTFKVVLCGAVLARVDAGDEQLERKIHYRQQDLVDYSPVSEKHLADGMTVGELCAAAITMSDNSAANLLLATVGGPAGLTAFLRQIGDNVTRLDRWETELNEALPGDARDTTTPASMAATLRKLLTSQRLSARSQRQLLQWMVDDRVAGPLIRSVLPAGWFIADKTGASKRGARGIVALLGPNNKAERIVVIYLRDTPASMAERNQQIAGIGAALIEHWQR
# Assay: β-lactamase enzyme inhibition assay, SHV-5 (cefotaxime substrate)
Readout Type: IC50

Example cases with answers are listed next.
Entry NCc1ccc(-c2cn(CC(=O)N[C@H]3Cc4cccc(C(=O)O)c4OB3O)nn2)cn1 has what IC50? < 100 nM

Entry O=C(Cn1ccc(B(O)O)n1)N[C@H]1Cc2cccc(C(=O)O)c2OB1O has what IC50? < 100 nM

Entry CNC(=O)c1cn(CC(=O)N[C@H]2Cc3cccc(C(=O)O)c3OB2O)nn1 has what IC50? < 100 nM

Entry O=C(Cc1cn2ccsc2n1)N[C@H]1Cc2cccc(C(=O)O)c2OB1O has what IC50? < 100 nM

Entry O=C(Cn1cc(C2CNC2)nn1)N[C@H]1Cc2cccc(C(=O)O)c2OB1O has what IC50? 100 to 1000 nM

Entry O=C(Cn1nnc(CC(=O)N[C@H]2Cc3cccc(C(=O)O)c3OB2O)n1)N[C@H]1CCNC1 has what IC50? < 100 nM

Entry CCN(CC)Cc1cn(CC(=O)N[C@H]2Cc3cccc(C(=O)O)c3OB2O)nn1 has what IC50? < 100 nM

New cases:
Entry NCCCc1c(CN)nnn1CC(=O)N[C@H]1Cc2cccc(C(=O)O)c2OB1O has what IC50? 1000 to 10000 nM

Value source: patent US11046716B2
